Give pEC50 for every item shown.
Molecular target: LGC-40 (Caenorhabditis elegans)
Sequence (Q22741 23-494): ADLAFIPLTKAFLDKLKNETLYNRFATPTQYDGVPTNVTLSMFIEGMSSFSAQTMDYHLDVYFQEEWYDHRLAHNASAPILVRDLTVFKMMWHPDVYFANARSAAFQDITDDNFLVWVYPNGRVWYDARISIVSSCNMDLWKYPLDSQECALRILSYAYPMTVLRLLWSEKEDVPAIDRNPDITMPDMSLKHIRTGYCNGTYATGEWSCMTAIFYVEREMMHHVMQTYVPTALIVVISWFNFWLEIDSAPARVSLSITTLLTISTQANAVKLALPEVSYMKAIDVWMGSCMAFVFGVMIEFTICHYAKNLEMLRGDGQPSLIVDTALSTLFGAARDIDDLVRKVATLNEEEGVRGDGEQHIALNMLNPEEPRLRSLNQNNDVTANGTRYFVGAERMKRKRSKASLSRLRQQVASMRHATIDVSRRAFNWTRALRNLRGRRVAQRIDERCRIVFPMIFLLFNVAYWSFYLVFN
One number for each entry, as −log10 of the molar value.

smiles.input: C[N+](C)(C)CCO
pEC50: 5.47
--
smiles.input: CC(=O)OCC[N+](C)(C)C
pEC50: 4.06

Kindly consider the entry below.
Ask: Which pEC50 is reported for this compound? NCCc1c[nH]c2ccc(O)cc12
Result: 3.04

###

Biological target: UniProt:Q22741
Assay: Inhibition of choline-evoked LGC-40 currents in Xenopus oocytes
Assay type: cell-based
Hi there, I'd appreciate the recorded pIC50 for every entry that follows.
Answers are plain numbers, as −log10 of the molar value.

compound: C[N+]1(C)CCOC(O)(c2ccc(-c3ccc(C4(O)C[N+](C)(C)CCO4)cc3)cc2)C1 (centres unmarked) [Hemicholinium-3, hemicholinium-3]
endpoint.result: 5.70

Here is another compound to look at.
Ask: Sample COc1cc2c3cc1Oc1cc(ccc1O)C[C@@H]1c4c(cc(OC)c(O)c4Oc4ccc(cc4)C[C@@H]3N(C)CC2)CC[N+]1(C)C [d-tubocurarine] — what was its pIC50?
Result: 5.08

###

Target: LGC-53 (Caenorhabditis elegans, UniProt H2KYN9)
Assay: cell-based
assay.metric: pEC50
Give bare numbers, as −log10 of the molar value.

Ask: // pEC50 lookup, key: NCCc1ccc(O)c(O)c1 [dopamine]
Result: 5.36
